test: chemical genetic growth profiling, strain panel (AID 1159580);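 also: tested at 20 µM; growth read once vehicle control cultures reached saturation at 30 °C; 1 = growth at the plate median or of vehicle wells; lower values mean less growth of the strain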; settings: S. cerevisiae deletion strains, growth OD, locus YBR231C, strain swc5, stronger effect = lower value
Hit rate of the full screen: of about 5,500 compounds, about 2,000 (36%) were called active. About 18% were inconclusive and are not listed. The list shows a part of the results.
Lab note - cut at 1 for normalized growth: Yes if strictly below, No if not.

1. CC(=O)OC1CCC2(C)C(=CC=C3C2CCC2(C)C3CCC2C(C)/C=C/C(C)C(C)C)C1(C)C (configuration not stated) | No
2. CCN(CC)C(=O)c1cccc(C)c1 | No
3. CC(C)C(C)/C=C/C(C)[C@H]1CCC2C3=CCC4CC(=O)CC[C@]4(C)C3CC[C@@]21C (some centres not stated) | No
4. COc1cc(OC)c2c(=O)c(-c3ccccc3)coc2c1 | Yes
5. OCc1ccccc1O | No
6. COC(=O)C[C@H]1C(C)(C)C(=O)[C@@H]2CC3=C(CC[C@]4(C)C3=CC(=O)O[C@H]4c3ccoc3)[C@@]1(C)C2=O | Yes

====

assay: chemical genetic growth profiling, strain panel (AID 1159580);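 also: tested at 20 µM; growth read once vehicle control cultures reached saturation at 30 °C; 1 = growth at the plate median or of vehicle wells; lower values mean less growth of the strain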; conditions: S. cerevisiae deletion strains, growth OD, locus YNL183C, strain NPR1
The whole screen tested about 5,500 compounds, of which about 2,000 (36%) were called active. Not shown: some 18% with an inconclusive outcome. Rule as the data show it: active = normalized growth mostly below about 0.91 (no sharp cut-off); inconclusive = no clear call, values can overlap the other calls; inactive = mostly above about 0.92. This is one part of the list.
Outcomes: 1.0 = active, 0.0 = inactive

1) CCC(C)(C)C(=O)O[C@H]1C[C@@H](C)C=C2C=C[C@H](C)[C@H](CC[C@@H]3C[C@@H](O)CC(=O)O3)[C@H]21 | 0.0
2) CC(C)(C)c1ccc(C(=O)NNc2c(Cl)cccc2Cl)cc1 | 0.0
3) O=c1cc(-c2ccccc2O)oc2cc(O)ccc12 | 0.0
4) Cc1ccc(Cl)c(Nc2ccccc2C(=O)O)c1Cl | 0.0
5) O=C(Nc1ccc(OC(F)(F)F)cc1)OC1CN(C(c2ccccc2)c2ccccc2)C1 | 0.0
6) Cc1c(-c2ccnn2C(=O)c2ccco2)cnn1-c1ccccc1 | 0.0
7) Nc1nc2ncc(=O)[nH]c2c(=O)[nH]1 | 0.0
8) CC(C)c1c(CN(C)C(C)Cc2ccccc2)n(C)n(-c2ccccc2)c1=O (stereo not drawn) | 0.0
9) CC(C(=O)O)c1ccc(C(=O)c2cccs2)cc1 (stereo not drawn) | 0.0
10) COc1cc(-c2coc3cc(OCc4ccccc4)c(OC)c(O)c3c2=O)cc(O)c1OC | 0.0
11) CC(C)(CCC(C)(C)N1C(=O)c2cccc3cccc(c23)C1=O)N1C(=O)c2cccc3cccc(c23)C1=O | 1.0
12) O=C(Nc1ccc(Cl)cc1)OCCSc1nc2ccccc2s1 | 0.0
13) O=C(O)CN1C(=O)c2cccc3cccc(c23)C1=O | 0.0
14) O=C1C=C2C=C[C@@H]3C[C@@]2(O1)[C@H]1CCCCN31 | 0.0
15) O=c1[nH]oc2c1CCNC2 | 0.0
16) Cc1onc(-c2c(F)cccc2Cl)c1C(=O)ON=C1C2CC3CC(C2)CC1C3 | 0.0
17) CCNC(=O)CC[C@H](N)C(=O)O | 0.0
18) COc1cc(-c2coc3cc(OC)c(OC)c(OC)c3c2=O)cc(OC)c1OC | 0.0
19) Cc1ccc(NNC(=O)c2c(C)noc2C)cc1Cl | 0.0
20) C[N+]1(C)C2CC(OC(=O)[C@@H](CO)c3ccccc3)CC1C1OC12 (stereo partly drawn) | 0.0
21) CCc1oc2ccccc2c1C(=O)c1cc(Br)c(O)c(Br)c1 | 1.0
22) CCN(CC)C(=O)c1cccc(C)c1 | 0.0
23) COC(=O)C(C)c1ccc(C(=O)c2cccs2)cc1 (stereo not drawn) | 0.0
24) O=C(C1CCCCC1)N1CC(=O)N2CCc3ccccc3C2C1 (stereo not drawn) | 0.0
25) Cc1c(C(=O)N(Cc2ccccc2)Cc2cccs2)cnn1-c1ccc(Cl)cc1 | 0.0
26) OCCOCCN1CCN(C2=Nc3ccccc3Sc3ccccc32)CC1 | 0.0
27) CO/N=C(\C(=O)NC1C(=O)N2C(C(=O)O)=C(COC(N)=O)CSC12)c1ccco1 (stereo not drawn) | 0.0
28) CCC(C)C(=O)O[C@H]1C[C@H](O)C=C2C=C[C@H](C)[C@H](CC[C@@H](O)C[C@@H](O)CC(=O)O)C21 (stereo partly drawn) | 0.0
29) C[C@@H]1C(=O)OC2[C@H](O)C34[C@@H]5OC(=O)[C@@]3(O[C@@H]3OC(=O)[C@H](O)[C@@]34[C@H](C(C)(C)C)[C@H]5O)[C@]21O (stereo partly drawn) | 0.0
30) CCCCN1CCCCC1C(=O)Nc1c(C)cccc1C (stereo not drawn) | 0.0
31) CC1(C)NC(=O)N(c2ccc([N+](=O)[O-])c(C(F)(F)F)c2)C1=O | 0.0
32) C=C1C(=O)O[C@@H]2C[C@@]3(C)CCC[C@H](C)C3=C[C@H]12 | 0.0
33) Cc1c(Cl)cccc1Nc1ccccc1C(=O)O | 1.0

====

assay: chemical genetic growth profiling, strain panel (AID 1159580);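 also: tested at 20 µM; growth read once vehicle control cultures reached saturation at 30 °C; 1 = growth at the plate median or of vehicle wells; lower values mean less growth of the strain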; settings: S. cerevisiae deletion strains, growth OD, locus YJR043C, strain POL32, stronger effect = lower value
Screen size: about 5,500 compounds; about 2,000 (36%) were called active. Inconclusive results (about 18%) are left out. This is one part of the list.
Below, each of the molecules is paired with its reported normalized growth value.
metric: normalized growth

1) CC[N+](CC)(CC)CCOc1cccc(OCC[N+](CC)(CC)CC)c1OCC[N+](CC)(CC)CC | 1.01
2) CCCCOC(=O)c1ccccc1C(=O)OCCCC | 0.982
3) Cc1nc(-c2ccc(S(=O)(=O)N3CCN(c4ncnc5scc(-c6ccccc6)c45)CC3)s2)cs1 | 1.01
4) Nc1ccc(C(=O)/C(=C\c2cccc([N+](=O)[O-])c2)C(=O)c2ccc(-c3ccccc3)cc2)cc1 | 0.979
5) OCc1ccccc1O | 1.02
6) Clc1ccc(C2=CSC3=NCCCN23)cc1 | 0.999
7) CCCCOC(=O)c1ccccc1C(=O)OCc1ccccc1 | 0.989
8) CC(C)(C)S(=O)(=O)/C(C#N)=C/N1CCCCC1 | 0.983
9) Cc1ccc(NS(C)(=O)=O)cc1N=Cc1ccc(Cl)c(Cl)c1 | 0.989
10) Oc1ccc(Cl)cc1 | 1
11) O=C(O)CN(CC(=O)O)Cc1cc2c(-c3ccccc3C(=O)O)c3cc(CN(CC(=O)O)CC(=O)O)c(=O)cc-3oc2cc1O | 1.01
12) Cc1cc(NC(=O)c2c(-c3c(Cl)cccc3Cl)noc2C)c([N+](=O)[O-])cc1C | 1.02
13) CCN(CC)CCOC(=O)c1ccc(N)cc1 | 1.01
14) CC(C)NNC(=O)c1ccncc1 | 1.01
15) Nc1ccc(N=Nc2ccccc2)c(N)n1 | 0.984
16) Cc1ccc(NC(=O)c2c(F)cccc2Cl)c(C(=O)Nc2ccc(F)cc2)c1 | 1.02
17) CCCCNc1ccc(C(=O)OCCN(C)C)cc1 | 1.02
18) O=C1OC(c2ccc(O)cc2)(c2ccc(O)cc2)c2ccccc21 | 0.991
19) Nc1ccc(N=Nc2ccc(S(N)(=O)=O)cc2)c2ccccc12 | 1

====

assay: chemical genetic growth profiling, strain panel (AID 1159580);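 also: tested at 20 µM; growth read once vehicle control cultures reached saturation at 30 °C; 1 = growth at the plate median or of vehicle wells; lower values mean less growth of the strain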; details: S. cerevisiae deletion strains, growth OD, locus YLL026W, stronger effect = lower value
Screen size: about 5,500 compounds; about 2,000 (36%) were called active. About 18% were inconclusive and are not listed. This is one part of the list.
metric: normalized growth

1. O=c1cc(-c2ccccc2O)oc2cc(O)ccc12 | 0.969
2. CC(C)C(C)/C=C/C(C)C1CCC2C3=CC=C4CC(O)CCC4(C)C3CCC21C (stereo not drawn) | 0.984
3. NC(N)=NS(=O)(=O)c1ccc(N)cc1 | 0.991
4. CCCC(=O)O[C@]1(C(=O)CO)CCC2[C@@H]3CCC4=CC(=O)CC[C@]4(C)C3[C@@H](O)C[C@@]21C (stereo partly drawn) | 1
5. COC(=O)[C@@H]1OC(=O)[C@H]2O[C@@]23[C@@]1(C)CCC1[C@@]2(C)CCC(=O)C(C)(C)C2C[C@@H](OC(C)=O)[C@]13C (stereo partly drawn) | 0.981
6. Clc1cccc(Cl)c1NC1=NCCN1 | 0.986
7. C=C1C(=O)O[C@@H]2C[C@@]3(C)CCC[C@H](C)C3=C[C@H]12 | 0.869
8. CN1C(C(=O)Nc2ccccn2)=C(O)c2ccccc2S1(=O)=O | 0.93
9. OCc1ccccc1O | 1
10. O=C1CC2OCC=C3CN4CC[C@]56c7ccccc7N1C5[C@H]2[C@H]3CC46 (stereo partly drawn) | 1.01
11. O=C(O)CN1C(=O)c2cccc3cccc(c23)C1=O | 0.996
12. COc1ccc(CCN2CCC(Nc3nc4ccccc4n3Cc3ccc(F)cc3)CC2)cc1 | 0.974
13. Nc1ccc(N=Nc2ccccc2)c(N)n1 | 0.825
14. CC(C)C(C)/C=C/C(C)[C@H]1CCC2C3=CCC4CC(=O)CC[C@]4(C)C3CC[C@@]21C (stereo partly drawn) | 1
15. Oc1ccc(Cl)cc1Cc1cc(Cl)ccc1O | 0.0579
16. Cc1cc(NC(=O)C2=C(O)c3ccccc3S(=O)(=O)N2C)no1 | 0.968
17. CC(=O)OC1CCC2(C)C(=CC=C3C2CCC2(C)C3CCC2C(C)/C=C/C(C)C(C)C)C1(C)C (stereo not drawn) | 1.02
18. CC1OC1P(=O)(O)O (stereo not drawn) | 0.985
